The measurements presented in this section are drawn from paper PMC5540273.

Reported values of Kd for individual entries
# Tested on: ABL1-nonphosphorylated;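 note: kd values determined as follow-up on hits from a single-replicate KINOMEscan panel screen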

Cc1cccc(-c2nc(-c3ccc(S(C)(=O)=O)cc3)sc2-c2ccnc(NCCc3ccccc3)c2)c1; 330 nM

Pending compound:
Q: So what Kd did O=C(Nc1ccccc1)Nc1cccc(Oc2ccc3nccn3n2)c1 get with ABL1-nonphosphorylated?
Ans: 140 nM

---

# System: STK39
# experimental parameters: concentration: 1 μM, replicates: in singlicate; n = 1
property name: %Inh (%)
Provide the reading as a plain figure in %.

Q: // lookup %Inh | system=STK39 | key= Cn1cncc1-c1ccc2ncnc(Nc3ccc(OCc4ccccc4)cc3)c2c1
Ans: 7

---

# Tested on: PCTK1
# Construct: gene CDK16
# experimental parameters: concentration: 1 μM, replicates: in singlicate; n = 1
property name: %Inh (%)
All answers are understood in %, so give the number only.

Q: Which %Inh value is on record for COC(=O)c1c(-c2ccccc2)c2cc(OC)ccc2c(=O)n1Cc1ccccc1 ?
Ans: 0

Q: // query: Cc1cccc(-c2nc(C)cc(Nc3ccncc3)n2)n1
Ans: 9

Q: Consider next the compound O=C(O)COc1ncnc2cc(-c3ccc4[nH]ncc4c3)sc12 in the same way.
Ans: 17
